# Assay setup: in acetone, 288.15 K
Measured endpoint: solubility (mole fraction)
Give your answer as a number; write no unit.

Query :: Given the entry O=C1CCc2cc(OCCCCc3nnnn3C3CCCCC3)ccc2N1 , report its measured solubility (mole fraction).
Result :: 0.00287

----------
# Assay setup: in n-propanol, 288.15 K
Measured endpoint: solubility (mole fraction)

Query :: Could you share which solubility (mole fraction) value was measured for O=C1CCc2cc(OCCCCc3nnnn3C3CCCCC3)ccc2N1 ?
Result :: 0.000634

----------
# Assay setup: in acetonitrile, 298.15 K
Measured endpoint: solubility (mole fraction)
Enter the number alone.

Query :: For the compound O=C1CCc2cc(OCCCCc3nnnn3C3CCCCC3)ccc2N1 , what solubility (mole fraction) is on record?
Result :: 0.00151

----------
# Assay setup: in n-butanol, 283.15 K
Measured endpoint: solubility (mole fraction)
Number, no unit, nothing else.

Query :: Record request: solubility (mole fraction) value, item O=C1CCc2cc(OCCCCc3nnnn3C3CCCCC3)ccc2N1
Result :: 0.000907

----------
# Assay setup: in 2-butanone, 288.15 K
Measured endpoint: solubility (mole fraction)

Query :: Request the reported solubility (mole fraction) associated with O=C1CCc2cc(OCCCCc3nnnn3C3CCCCC3)ccc2N1
Result :: 0.00464

----------
# Assay setup: in ethanol, 313.15 K
Measured endpoint: solubility (mole fraction)
// keep it numeric: no unit symbol after the value

Query :: # lookup: solubility (mole fraction) of O=C1CCc2cc(OCCCCc3nnnn3C3CCCCC3)ccc2N1
Result :: 0.00144

----------
# Assay setup: in n-propanol, 298.15 K
Measured endpoint: solubility (mole fraction)
In your answer, state the number alone without any accompanying words.

Query :: Quick one: solubility (mole fraction) of O=C1CCc2cc(OCCCCc3nnnn3C3CCCCC3)ccc2N1 ?
Result :: 0.00098

----------
# Assay setup: in n-butanol, 313.15 K
Measured endpoint: solubility (mole fraction)
Number only, please.

Query :: Requested field: solubility (mole fraction). Item: O=C1CCc2cc(OCCCCc3nnnn3C3CCCCC3)ccc2N1
Result :: 0.00307

----------
# Assay setup: in 1,4-dioxane, 313.15 K
Measured endpoint: solubility (mole fraction)
Reply with just the number.

Query :: Suppose we examine the compound O=C1CCc2cc(OCCCCc3nnnn3C3CCCCC3)ccc2N1 ; what solubility (mole fraction) value has been reported?
Result :: 0.0112

----------
# Assay setup: in ethanol, 293.15 K
Measured endpoint: solubility (mole fraction)
// print number alone

Query :: I would be grateful if you could share the reported solubility (mole fraction) for O=C1CCc2cc(OCCCCc3nnnn3C3CCCCC3)ccc2N1 .
Result :: 0.00069

----------
# Assay setup: in n-butanol, 298.15 K
Measured endpoint: solubility (mole fraction)
Just the number, please.

Query :: Dear colleague, I am looking for the recorded solubility (mole fraction) of the following compound: O=C1CCc2cc(OCCCCc3nnnn3C3CCCCC3)ccc2N1
Result :: 0.00184

----------
# Assay setup: in acetonitrile, 273.15 K
Measured endpoint: solubility (mole fraction)
Give only the figure.

Query :: Can you look up the measured solubility (mole fraction) of O=C1CCc2cc(OCCCCc3nnnn3C3CCCCC3)ccc2N1 for me?
Result :: 0.0003

----------
# Assay setup: in 2-butanone, 298.15 K
Measured endpoint: solubility (mole fraction)
Response field accepts a number only; no unit should be typed.

Query :: Looking for the measured solubility (mole fraction) of O=C1CCc2cc(OCCCCc3nnnn3C3CCCCC3)ccc2N1 , can you help?
Result :: 0.006
